- Assayed target: acidic sphingomyelinase (aSMase) (Homo sapiens, UniProt P17405)
- Construct: endogenous in cells; host or cells: HT 29 (human adenocarcinoma cell line)
- Sequence (P17405 47-631): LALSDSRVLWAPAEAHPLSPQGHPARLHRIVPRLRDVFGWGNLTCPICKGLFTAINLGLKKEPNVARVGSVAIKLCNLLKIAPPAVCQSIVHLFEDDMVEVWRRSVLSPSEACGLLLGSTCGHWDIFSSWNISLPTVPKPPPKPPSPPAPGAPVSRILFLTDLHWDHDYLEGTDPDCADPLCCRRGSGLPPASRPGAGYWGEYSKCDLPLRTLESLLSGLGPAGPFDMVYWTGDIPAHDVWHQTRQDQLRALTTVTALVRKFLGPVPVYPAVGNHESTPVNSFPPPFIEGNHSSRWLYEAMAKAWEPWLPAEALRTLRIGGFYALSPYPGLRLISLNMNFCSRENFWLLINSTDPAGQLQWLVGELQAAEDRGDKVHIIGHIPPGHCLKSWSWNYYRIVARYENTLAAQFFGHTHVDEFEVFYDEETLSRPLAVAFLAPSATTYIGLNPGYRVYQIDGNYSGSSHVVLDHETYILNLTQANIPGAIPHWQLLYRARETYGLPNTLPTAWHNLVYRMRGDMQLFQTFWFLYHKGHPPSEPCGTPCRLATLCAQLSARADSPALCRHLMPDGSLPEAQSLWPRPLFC
- Procedure summary: SMase activity determination (activation of aSMase in cells, NBD-sphingomyelin hydrolysis)
- Format: cell-based
- Condition: 20 μM; HT 29 cells; mean (MW); basal activity 278,4 ± 41,3; unit only printed
Listed here are molecules together with their documented aSMase-activity 20 μM MW.

Below: 3 molecules and their reported aSMase-activity 20 μM MW.
| Molecule | aSMase-activity 20 μM MW |
| --- | --- |
| CCCCCC(=O)N[C@@H](CO)[C@H](O)/C1=C/CCCCCC1 | 1108,4 pmolµg^-1min^-1 |
| CCCCCC(=O)N[C@@H](CO)[C@H](O)C1=CCCC1 | 1185,4 pmolµg^-1min^-1 |
| CCCCCCCCCCCCC/C=C/[C@@H](O)[C@H](CO)NC(=O)CCCCC [Ceramide C6, reference compound] | 743,4 pmolµg^-1min^-1 |

# aSMase-activity 20 μM MW of CC(C)(C)OC(=O)N1[C@H]([C@H](O)/C2=C/CCCCCC2)COC1(C)C = 967,3 pmolµg^-1min^-1

All values here come from patent EP1580187A1.
